- Test system: Mannheimia haemolytica
- PROTOCOL NOTES: minimum inhibitory concentration (MIC)
- DETAILS: isolate (source animal id): 183
Below, each of the compounds is paired with its reported minimum inhibitory concentration value.
MEASURE: minimum inhibitory concentration

CCC[C@@H]1C[C@@H](C(=O)N[C@@H]([C@H]2O[C@H](SC)[C@H](O)[C@@H](O)[C@H]2O)[C@H](C)Cl)N(C)C1 16 µg/mL
COc1cc(NS(=O)(=O)c2ccc(N)cc2)nc(OC)n1 > 256 µg/mL
CS(=O)(=O)c1ccc([C@@H](O)[C@@H](CF)NC(=O)C(Cl)Cl)cc1 > 8 µg/mL
CCCNC[C@]1(O)[C@H](C)O[C@@H](O[C@H]2[C@H](C)[C@@H](O[C@@H]3O[C@H](C)C[C@H](N(C)C)[C@H]3O)[C@](C)(O)C[C@@H](C)CN[C@H](C)[C@@H](O)[C@](C)(O)[C@@H](CC)OC(=O)[C@@H]2C)C[C@@]1(C)OC ≤ 8 µg/mL
CC1(C)S[C@@H]2[C@H](NC(=O)Cc3ccccc3)C(=O)N2[C@H]1C(=O)O > 8 µg/mL
CC1(C)S[C@@H]2[C@H](NC(=O)[C@H](N)c3ccccc3)C(=O)N2[C@H]1C(=O)O > 16 µg/mL
